Biological target: Amine oxidase [flavin-containing] B (Homo sapiens, UniProt P27338)
Sequence (P27338 whole entry): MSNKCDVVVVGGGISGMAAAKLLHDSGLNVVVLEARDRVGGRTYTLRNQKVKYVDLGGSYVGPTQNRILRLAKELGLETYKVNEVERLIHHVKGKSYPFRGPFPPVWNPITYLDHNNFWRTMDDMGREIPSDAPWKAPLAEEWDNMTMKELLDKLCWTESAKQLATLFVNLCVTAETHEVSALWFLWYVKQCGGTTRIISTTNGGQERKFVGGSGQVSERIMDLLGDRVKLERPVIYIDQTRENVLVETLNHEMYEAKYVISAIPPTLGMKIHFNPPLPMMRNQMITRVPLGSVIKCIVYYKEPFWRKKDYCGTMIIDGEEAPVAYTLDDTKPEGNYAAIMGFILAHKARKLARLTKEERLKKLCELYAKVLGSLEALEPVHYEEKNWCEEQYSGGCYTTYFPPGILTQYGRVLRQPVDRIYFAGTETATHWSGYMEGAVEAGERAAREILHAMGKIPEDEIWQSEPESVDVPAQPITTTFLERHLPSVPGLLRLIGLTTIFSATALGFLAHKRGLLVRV
pIC50: −log10 of the molar value.
Recorded pIC50 by entry

[
  {
    "CPD_SMILES": "C/N=C1/CCc2c1n(C)c1ccc(OC(=O)N(C)C)c(Br)c21",
    "pIC50": 4.29
  },
  {
    "CPD_SMILES": "CC/N=C1/CCc2c1n(C)c1ccc(OC(=O)NC)c(Br)c21",
    "pIC50": "< 3.00"
  },
  {
    "CPD_SMILES": "CC/N=C1/CCc2c1n(C)c1ccc(OC(=O)NC)c(Cl)c21",
    "pIC50": "< 3.00"
  },
  {
    "CPD_SMILES": "CCC/N=C1/CCc2c1n(C)c1ccc(OC(=O)NC)cc21",
    "pIC50": "< 3.00"
  },
  {
    "CPD_SMILES": "Cn1c2c(c3ccccc31)CC/C2=N/Cc1ccncc1",
    "pIC50": "< 3.00"
  }
]

Asked: Complete the entry with pIC50 for C/N=C1/CCc2c1n(C)c1ccccc21
Given back: 3.50

Asked: Kindly indicate its recorded pIC50. Item: CNC(=O)Oc1ccc2c(c1)c1c(n2C)/C(=N\CCc2ccccc2)CC1
Given back: < 3.00

* * *

target: Amine oxidase [flavin-containing] A (Homo sapiens)
pIC50: −log10 of the molar value.
Threshold check on pIC50: at or above 5 gives Fulfilled, strictly below gives Not fulfilled.

[
  {
    "COMPOUND": "COc1cc(Br)c2oc(C3CCNCC3)cc2c1 [BROFAROMINE]",
    "CLASS_ASSIGNMENT": "Fulfilled"
  },
  {
    "COMPOUND": "C/N=C1/CCc2c1n(C)c1cc(Cl)c(OC(=O)NC)cc21",
    "CLASS_ASSIGNMENT": "Not fulfilled"
  },
  {
    "COMPOUND": "C/N=C1/CCc2c1n(C)c1ccc(OC(=O)NCc3ccccc3)c(Br)c21",
    "CLASS_ASSIGNMENT": "Fulfilled"
  },
  {
    "COMPOUND": "C/N=C1/CCc2c1n(C)c1ccc(OC(=O)N(C)C)c(Br)c21",
    "CLASS_ASSIGNMENT": "Fulfilled"
  },
  {
    "COMPOUND": "CCC/N=C1/CCc2c1n(C)c1ccccc21",
    "CLASS_ASSIGNMENT": "Fulfilled"
  }
]

Could you now look at the following compound, please?
Asked: # bool: pIC50 of CC(C)/N=C1/CCc2c1n(C)c1ccccc21 >= 5
Given back: Not fulfilled

* * *

Biological target: Amine oxidase [flavin-containing] A (Homo sapiens)
Sequence (P21397 whole entry): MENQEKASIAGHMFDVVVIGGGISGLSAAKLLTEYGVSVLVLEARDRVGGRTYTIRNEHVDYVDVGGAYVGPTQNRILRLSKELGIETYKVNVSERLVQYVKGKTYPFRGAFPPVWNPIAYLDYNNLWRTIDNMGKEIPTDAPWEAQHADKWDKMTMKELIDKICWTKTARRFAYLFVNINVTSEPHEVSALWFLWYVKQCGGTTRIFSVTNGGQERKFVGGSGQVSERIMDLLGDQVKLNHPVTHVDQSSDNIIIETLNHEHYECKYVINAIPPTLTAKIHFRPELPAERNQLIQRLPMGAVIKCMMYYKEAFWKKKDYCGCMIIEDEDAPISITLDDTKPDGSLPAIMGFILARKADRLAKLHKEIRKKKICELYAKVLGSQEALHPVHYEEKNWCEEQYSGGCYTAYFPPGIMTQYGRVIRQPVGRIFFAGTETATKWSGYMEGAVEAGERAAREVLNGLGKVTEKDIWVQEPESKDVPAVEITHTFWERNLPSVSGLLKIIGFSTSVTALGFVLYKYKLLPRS
MEASUREMENT_TYPE: log10(IC50) (log10 of the value in µM)
Field: value | Transform: log10 | Quantity: IC50 | Unit: µM

Known log10(IC50) results, listed for orientation:
[
  {
    "CPD_SMILES": "CCCCNC(=O)Oc1ccc2c(c1Br)c1c(n2C)/C(=N\\C)CC1",
    "MEASUREMENT_TYPE": "log10(IC50)",
    "OBSERVED_MEASUREMENT": -0.12
  },
  {
    "CPD_SMILES": "CC/N=C1/CCc2c1n(C)c1ccc(OC(=O)NC)c(Br)c21",
    "MEASUREMENT_TYPE": "log10(IC50)",
    "OBSERVED_MEASUREMENT": -0.68
  },
  {
    "CPD_SMILES": "CC/N=C1/CCc2c1n(C)c1ccc(OC(=O)NC)c(Cl)c21",
    "MEASUREMENT_TYPE": "log10(IC50)",
    "OBSERVED_MEASUREMENT": -1.00
  }
]

Asked: Answer with the recorded log10(IC50) for the compound listed here: CCC/N=C1/CCc2c1n(C)c1ccc(OC(=O)NC)cc21
Given back: 1.40

Asked: For CC/N=C1/CCc2c1n(C)c1ccccc21 , write its log10(IC50).
Given back: 0.33

* * *

Target: Amine oxidase [flavin-containing] B (Homo sapiens, UniProt P27338)
Sequence (P27338 whole entry): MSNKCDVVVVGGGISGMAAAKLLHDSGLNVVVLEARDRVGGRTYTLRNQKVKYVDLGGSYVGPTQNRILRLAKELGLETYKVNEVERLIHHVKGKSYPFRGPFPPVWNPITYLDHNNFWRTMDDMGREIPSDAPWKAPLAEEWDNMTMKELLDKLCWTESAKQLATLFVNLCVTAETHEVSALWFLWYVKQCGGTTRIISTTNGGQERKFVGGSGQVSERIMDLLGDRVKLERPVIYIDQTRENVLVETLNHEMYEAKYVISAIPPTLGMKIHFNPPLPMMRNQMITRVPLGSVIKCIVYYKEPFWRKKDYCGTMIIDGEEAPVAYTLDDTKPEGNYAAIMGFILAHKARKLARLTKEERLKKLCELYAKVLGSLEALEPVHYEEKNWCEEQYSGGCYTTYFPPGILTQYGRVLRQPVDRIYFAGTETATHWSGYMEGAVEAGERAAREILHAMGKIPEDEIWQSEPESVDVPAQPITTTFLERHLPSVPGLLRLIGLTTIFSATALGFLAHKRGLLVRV
MEASUREMENT_TYPE: IC50

[
  {
    "CPD_SMILES": "CC/N=C1/CCc2c1n(C)c1ccccc21",
    "IC50": "77.6 µM"
  },
  {
    "CPD_SMILES": "CCCn1c2c(c3c(Br)c(OC(=O)NC)ccc31)CC/C2=N/CC",
    "IC50": "> 1000 µM"
  },
  {
    "CPD_SMILES": "C/N=C1/CCc2c1n(C)c1ccc(OC(=O)NCc3ccccc3)c(Br)c21",
    "IC50": "> 1000 µM"
  },
  {
    "CPD_SMILES": "C/N=C1/CCc2c1n(C)c1ccc(OC(=O)NC)cc21",
    "IC50": "> 1000 µM"
  },
  {
    "CPD_SMILES": "COc1cc(Br)c2oc(C3CCNCC3)cc2c1",
    "IC50": "23.4 µM"
  },
  {
    "CPD_SMILES": "CC/N=C1/CCc2c1n(C)c1ccc(OC(=O)NC)cc21",
    "IC50": "> 1000 µM"
  },
  {
    "CPD_SMILES": "CC(C)/N=C1/CCc2c1n(C)c1ccccc21",
    "IC50": "> 1000 µM"
  },
  {
    "CPD_SMILES": "C/N=C1/CCc2c1n(C)c1ccc(OC(=O)NC)c(Br)c21",
    "IC50": "> 1000 µM"
  }
]

Asked: Please give the documented IC50 of C/N=C1/CCc2c1n(C)c1cc(Cl)c(OC(=O)NC)cc21
Given back: 395 µM

Asked: Supply reported IC50 belonging to this molecule: C/N=C1/CCc2c1n(C)c1ccc(OC(=O)NC)c(Cl)c21
Given back: > 1000 µM

Asked: Supply recorded IC50 for CCC/N=C1/CCc2c1n(C)c1ccccc21 here.
Given back: > 1000 µM

Asked: # return recorded IC50 for input CCCCNC(=O)Oc1ccc2c(c1Br)c1c(n2C)/C(=N\C)CC1
Given back: 175 µM
